Where a name gives a salt, the structure may show the parent alone.
Property Name: melting point

{"Compound": "CC1(C)CN=C(SCC2=CSC3=Nc4ccccc4CN23)N1 (as salt: hydrochloride) [Example 5, dihydrochloride]", "melting point": "> 250 °C"}
{"Compound": "c1ccc2c(c1)CN(CCSC1=NCc3ccccc3N1)C2 (as salt: hydrochloride) [Example 71, dihydrochloride]", "melting point": "134 to 138 °C"}
{"Compound": "Fc1ccc2c(c1)CN1C(CSC3=NCc4ccccc4N3)=CSC1=N2 (as salt: hydrochloride) [Example 84, dihydrochloride]", "melting point": "> 250 °C"}
{"Compound": "Cc1ccc(CC2CN3C(CSC4=NCc5ccccc5N4)=CSC3=N2)cc1 (centres unmarked) (as salt: hydrochloride) [Example 122, dihydrochloride]", "melting point": "158 to 170 °C"}
{"Compound": "c1ccc2c(c1)CN=C(SCCN1[C@@H]3CCC[C@H]1CC3)N2 (as salt: hydrochloride) [Example 133, dihydrochloride]", "melting point": "52 to 70 °C"}
{"Compound": "Fc1ccc2c(c1)NC(SCC1=CSC3=NC(Cc4ccccc4)CN13)=NC2 (centres unmarked) (as salt: hydrochloride) [Example 89, dihydrochloride]", "melting point": "125 to 130 °C"}

[Q] Given the entry OC1(CSC2=NCc3ccccc3N2)CSC2=N[C@H](c3ccccc3)[C@@H](c3ccccc3)N21 (relative stereo) (as salt: hydrochloride) [Example 17, dihydrochloride] , report its measured melting point.
[A] 195 to 200 °C

[Q] Given the entry CC1(C)N=C(SCC2=CSC3=Nc4cccc(F)c4CN23)Nc2ccccc21 (as salt: hydrochloride) [Example 73, dihydrochloride] , report its measured melting point.
[A] 190 to 194 °C

[Q] Given the entry C1=C(CSC2=NCc3ccccc3N2)N2CCc3ccccc3N=C2S1 (as salt: hydrochloride) [Example 35, dihydrochloride] , report its measured melting point.
[A] 248 to 249 °C

[Q] Given the entry CN1CCN=C1SCC1=CSC2=Nc3ccccc3CN12 (as salt: hydrochloride) [Example 36, dihydrochloride] , report its measured melting point.
[A] 247 to 248 °C

[Q] Given the entry C1=C(CSC2=NCc3ccccc3N2)N2Cc3ccccc3CN=C2S1 (as salt: hydrochloride) [Example 11, dihydrochloride] , report its measured melting point.
[A] 189 to 193 °C

// provenance: patent US20240018125A1
